Quick reference: TGI of the listed items.
# Test system: MOLT-4 leukemia
# Assay Method Text: NCI tumour cell line growth inhibition, 48 h

Reported TGI for `CCNc1ccc2c(c1)Cc1ccccc1-2` was > 100 µM

Reported TGI for `CCOC(=O)C1=C(c2ccccc2)N(C)c2ccccc2S1` was > 100 µM

Reported TGI for `CCc1cccc(C(C)C)c1NC(=O)C(=O)CC(=O)c1c(C)n([O-])c2ccccc2[n+]1=O` was > 100 µM

---

Quick reference: GI50 of the listed items.
# System: MDA-MB-231 breast
# Assay Method Text: NCI tumour cell line growth inhibition, 48 h

See these solved cases before continuing.
Molecule	GI50
COc1cc(CCN)c2c(c1OC)SSSSS2	1.49 µM
CC(C)CNCC(O)COc1ccc(C(C)(C)c2ccc(OCC(O)CNCC(C)C)cc2)cc1 (stereo not drawn)	1.5 µM

Reported GI50 for CCOC(=O)C1(Br)C(c2ccccc2)NC(=O)NC1(C)Br (stereo not drawn) was 27.8 µM

---

Quick reference: TGI of the listed items.
# System: DU-145 prostate
# Assay Method Text: NCI tumour cell line growth inhibition, 48 h
State the answer as a number, implicitly in µM.

Reported TGI for `Cc1ccc(/C(=N\N=C(N)N)c2ccccc2)cc1` was 10.4

Reported TGI for `O=C1c2ccc([N+](=O)[O-])cc2-c2c1c1ccccc1c(=O)n2CCCNCCCNCCCn1c2c(c3ccc([N+](=O)[O-])cc3c1=O)C(=O)c1ccccc1-2` was 2.03

---

# Test system: NCI-H23 lung
# Assay Method Text: NCI tumour cell line growth inhibition, 48 h
Experimental Endpoint: TGI

See these solved cases before continuing.
Molecule	TGI
O=[N+]([O-])c1c(Br)cc(Br)c2c1Nc1c(ccc(Cl)c1Cl)S2	29.6 µM
Oc1ccc(C(c2ccc(O)cc2)c2ccc(Cl)cn2)cc1	0.983 µM
Cc1ccc(C(C)(C)C[P+](C)(c2ccccc2)c2ccccc2)cc1	> 58.7 µM
CC1(C)CC[C@H](Nc2ncc(C(F)(F)F)c(-c3c[nH]c4c(P(C)(C)=O)c(C#N)ccc34)n2)CN1	3.44 µM
Clc1ccc(N2N=C(c3cccc(Nc4ccncc4)c3)CC2c2ccc3c(c2)OCO3)cc1 (stereo unspecified)	3.37 µM
O=C(Nc1ccc(Cl)cc1Cl)C(=O)C(C(=O)c1ccc2ccccc2c1)C1OC(=O)c2ccccc21 (stereo unspecified)	13.1 µM
CC1OC2=N[C@@H]1C(=O)N[C@@H](C(C)C)C1=N[C@H](C(=O)N[C@@H](C(C)C)C3=N[C@H](C(=O)N[C@@H](C(C)C)C4=N[C@H](C(=O)N[C@H]2C(C)C)C(C)O4)C(C)O3)C(C)O1 (stereo partly specified)	> 10 µM
O=C(/C=C/C12c3ccccc3C(c3ccccc31)C1C(=O)N(c3ccccc3)C(=O)C12)c1ccccc1 (stereo unspecified)	18.1 µM

So the reported TGI for Cc1ccc(C(=O)O)c(CC2Cc3c(C)cccc3C2=O)c1 (stereo unspecified) , on NCI-H23 lung, turned out to be > 100 µM

So the reported TGI for O=CC(O)C(O)C(O)C(O)C(=O)NCCCCCCCCCCCCNC(=O)C(O)C(O)C(O)C(O)C=O (stereo unspecified) , on NCI-H23 lung, turned out to be > 100 µM

So the reported TGI for `COc1ccccc1/C=C/[N+](=O)[O-]` , on NCI-H23 lung, turned out to be 4.6 µM
